Reported values of log10 GI50 for individual entries
- Tested on: HeLa
- test.details: Cytotoxicity against human HeLa cells after 48 hrs by MTT assay
- Format: functional
attribute.measured: log10 GI50 (log10 of the value in µM)

* CCOC(=O)C1=C(Nc2ccccc2)CC(c2ccc(Cl)cc2)N(c2ccccc2)C1c1cccnc1 (centres undefined) | 1.00
* CCOC(=O)C1=C(Nc2ccccc2)CC(c2ccc(F)cc2)N(c2ccccc2)C1c1ccc([N+](=O)[O-])cc1 (centres undefined) | 1.95
* CCOC(=O)C1=C(Nc2ccccc2)CC(c2cccnc2)N(c2ccccc2)C1c1cccnc1 (centres undefined) | 1.94
* CCOC(=O)C1C(=O)CC(c2cccnc2)N(c2ccccc2)C1c1cccnc1 (centres undefined) | 0.97
* COc1cccc2c1C(=O)c1c(O)c3c(c(O)c1C2=O)C[C@@](O)(C(=O)CO)C[C@@H]3O[C@H]1C[C@H](N)[C@H](O)[C@H](C)O1 | 0.88
* CCOC(=O)C1=C(Nc2ccc(C)cc2)CC(c2ccccc2)N(c2ccc(C)cc2)C1c1ccccn1 (centres undefined) | 1.96
* CCOC(=O)C1=C(Nc2ccccc2)CC(c2ccc(Br)cc2)N(c2ccccc2)C1c1ccc([N+](=O)[O-])cc1 (centres undefined) | 1.03

* * *

- test.target: UniProt:P15145
- Sequence (P15145 whole entry): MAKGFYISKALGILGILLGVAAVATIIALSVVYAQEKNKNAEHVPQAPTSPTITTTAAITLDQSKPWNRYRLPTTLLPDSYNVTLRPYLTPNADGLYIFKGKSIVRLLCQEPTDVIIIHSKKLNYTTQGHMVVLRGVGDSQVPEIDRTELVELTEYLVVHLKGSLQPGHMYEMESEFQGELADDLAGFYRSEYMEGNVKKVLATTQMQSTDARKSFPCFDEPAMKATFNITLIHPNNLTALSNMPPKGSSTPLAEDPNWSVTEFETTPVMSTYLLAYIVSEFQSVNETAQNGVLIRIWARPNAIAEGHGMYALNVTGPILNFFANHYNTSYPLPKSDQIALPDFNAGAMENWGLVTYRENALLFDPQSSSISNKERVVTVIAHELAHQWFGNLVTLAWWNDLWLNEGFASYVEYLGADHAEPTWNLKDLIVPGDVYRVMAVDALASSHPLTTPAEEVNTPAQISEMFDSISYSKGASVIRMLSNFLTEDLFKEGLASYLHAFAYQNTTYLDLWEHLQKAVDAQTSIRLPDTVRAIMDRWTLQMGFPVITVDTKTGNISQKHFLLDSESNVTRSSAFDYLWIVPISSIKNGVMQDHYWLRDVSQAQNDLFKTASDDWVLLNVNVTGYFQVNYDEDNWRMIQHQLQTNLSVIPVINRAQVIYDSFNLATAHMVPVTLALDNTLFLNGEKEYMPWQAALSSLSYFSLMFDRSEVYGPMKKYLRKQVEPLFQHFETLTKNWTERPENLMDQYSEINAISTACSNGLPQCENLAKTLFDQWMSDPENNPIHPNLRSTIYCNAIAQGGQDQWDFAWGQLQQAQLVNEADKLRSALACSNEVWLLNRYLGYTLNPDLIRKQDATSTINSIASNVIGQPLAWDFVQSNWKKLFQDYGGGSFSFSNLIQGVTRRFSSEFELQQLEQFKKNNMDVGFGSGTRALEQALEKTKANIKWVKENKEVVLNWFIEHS
attribute.measured: IC50

- OC1=CC(c2cccnc2)N(c2ccccc2)C(c2cccnc2)C1 (stereo unspecified): > 100 µM
- OC1=CC(c2ccccn2)N(c2ccccc2)C(c2ccccn2)C1 (stereo unspecified): > 100 µM
- CCOC(=O)C1=C(Nc2ccccc2)CC(c2ccccn2)N(c2ccccc2)C1c1ccccn1 (stereo unspecified): > 100 µM
- CCOC(=O)C1=C(Nc2ccccc2)CC(c2ccc(C#N)cc2)N(c2ccccc2)C1c1ccccn1 (stereo unspecified): > 100 µM
- CCOC(=O)C1C(=O)CC(c2ccccn2)N(c2ccccc2)C1c1ccccn1 (stereo unspecified): > 100 µM
- CCOC(=O)C1=C(Nc2ccccc2)CC(c2cc(OC)c(OC)c(OC)c2)N(c2ccccc2)C1c1cccnc1 (stereo unspecified): > 100 µM

* * *

- test.target: Puromycin-sensitive aminopeptidase (Homo sapiens, UniProt P55786)
- Sequence (P55786 whole entry): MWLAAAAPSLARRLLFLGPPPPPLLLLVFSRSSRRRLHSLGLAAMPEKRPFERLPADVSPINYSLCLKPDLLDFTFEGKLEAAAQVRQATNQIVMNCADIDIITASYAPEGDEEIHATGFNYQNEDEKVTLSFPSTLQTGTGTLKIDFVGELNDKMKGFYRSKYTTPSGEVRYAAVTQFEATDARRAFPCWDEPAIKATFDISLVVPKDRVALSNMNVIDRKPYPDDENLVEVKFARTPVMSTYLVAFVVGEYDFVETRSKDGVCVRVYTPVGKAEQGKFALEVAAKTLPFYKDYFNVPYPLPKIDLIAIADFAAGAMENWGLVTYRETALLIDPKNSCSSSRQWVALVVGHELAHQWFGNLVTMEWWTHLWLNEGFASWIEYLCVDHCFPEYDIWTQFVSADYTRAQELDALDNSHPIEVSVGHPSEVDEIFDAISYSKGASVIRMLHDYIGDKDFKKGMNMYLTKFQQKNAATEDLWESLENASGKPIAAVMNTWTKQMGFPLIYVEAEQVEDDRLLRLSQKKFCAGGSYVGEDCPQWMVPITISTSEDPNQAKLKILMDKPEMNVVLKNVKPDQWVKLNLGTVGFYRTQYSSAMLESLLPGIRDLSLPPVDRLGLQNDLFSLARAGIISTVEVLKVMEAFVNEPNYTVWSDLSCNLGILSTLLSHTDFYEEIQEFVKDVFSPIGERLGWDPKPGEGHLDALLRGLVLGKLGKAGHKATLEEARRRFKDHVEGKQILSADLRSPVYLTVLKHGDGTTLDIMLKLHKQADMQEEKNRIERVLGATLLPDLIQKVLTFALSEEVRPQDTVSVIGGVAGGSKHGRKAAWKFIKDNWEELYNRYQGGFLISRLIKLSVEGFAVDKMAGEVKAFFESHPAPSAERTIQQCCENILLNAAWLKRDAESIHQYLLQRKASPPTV
- test.details: Inhibition of recombinant human puromycin sensitive aminopeptidase using Leu-pNA as substrate after 30 mins
pIC50: −log10 of the molar value.
attribute.measured: pIC50

• COc1ccc(C[C@H](N)C(=O)N[C@H]2[C@@H](O)[C@H](n3cnc4c(N(C)C)ncnc43)O[C@@H]2CO)cc1 [PUROMYCIN] = 5.61

Where these numbers come from: ChEMBL document CHEMBL3739274
